- Tested on: SK-MEL-28 melanoma
- assayText: NCI tumour cell line growth inhibition, 48 h
Listing of recorded TGI by entry.

{"compound": "O=C(Cc1ccccc1)NNc1nc(NNC(=O)c2ccncc2)nc(Nc2ccc([N+](=O)[O-])cc2)n1", "displayUnit": "µM", "operator": ">", "TGI": 10}
{"compound": "O=C(CCC(NC(=O)OCc1ccccc1)C(=O)OCc1ccccc1)Nc1ccc(OCc2ccccc2)cc1 (stereo not given)", "displayUnit": "µM", "operator": ">", "TGI": 31.6}
{"compound": "Nc1ccccc1C#C/C=C\\C#Cc1cccs1", "displayUnit": "µM", "operator": ">", "TGI": 67.5}
{"compound": "Cc1cccc2nc3c(C(=O)NCCN(C)C)cccc3cc12", "displayUnit": "µM", "operator": "=", "TGI": 3.62}
{"compound": "COc1ccc(-c2ccc(/C=N/n3c(COc4ccc(Cl)cc4Cl)nn(CN4CCOCC4)c3=S)o2)c([N+](=O)[O-])c1", "displayUnit": "µM", "operator": "=", "TGI": 86.8}
{"compound": "CCOC(=O)CSc1nc(N)c2c(-c3ccc(OC)c(OC)c3)c3c(nc2n1)CCCC3", "displayUnit": "µM", "operator": ">", "TGI": 100}
{"compound": "Cc1cc(N(CCCl)CCCl)ccc1C=Nc1ccc(-c2csc(Cc3ccccc3)n2)cc1", "displayUnit": "µM", "operator": "=", "TGI": 63.1}
{"compound": "CC1=C(C)C(=O)c2c(cc3ccccn23)C1=O", "displayUnit": "µM", "operator": "=", "TGI": 34}
{"compound": "COc1ccc(OCc2nc3cc(C(F)(F)F)ccc3nc2-c2ccccc2)cc1", "displayUnit": "µM", "operator": ">", "TGI": 100}
{"compound": "COC(=O)C(=O)C1(CCC(C)=O)c2ccccc2-c2c(C)ccc(C)c21 (stereo not given)", "displayUnit": "µM", "operator": ">", "TGI": 100}

###

- Test system: ACHN renal
- assayText: NCI tumour cell line growth inhibition, 48 h
Where a SMILES comes first, the peptide text is derived from it. [ ]: non-standard residue; d: D form. The star is where a group is joined. X28 = COC1=CC(=O)N(C(=O)[C@@H](O*)C(C)C)[C@H]1Cc1ccccc1; NMeV = CN[C@H](C(=O)O)C(C)C; Hexanoyl = CCCCCC(=O)*

{"compound": "CCCCCC(=O)N[C@H](C(=O)N[C@H](C(=O)N(C)[C@H](C(=O)N1CCC[C@H]1C(=O)N1CCC[C@H]1C(=O)O[C@H](C(=O)N1C(=O)C=C(OC)[C@@H]1Cc1ccccc1)C(C)C)C(C)C)C(C)C)C(C)C (Hexanoyl-VV[NMeV]PP-X28)", "TGI": "> 100 µM"}
{"compound": "NNC(=O)/C(=C/c1ccc(Cl)cc1Cl)NC(=O)c1ccccc1", "TGI": "> 100 µM"}
{"compound": "O=C(N/C(=C\\c1ccc2c(c1)OCO2)c1nc2ccccc2[nH]1)c1ccccc1", "TGI": "> 100 µM"}
{"compound": "COc1ccc2sc3c(NCCCN(C)C)nc4ccccc4c3c(=O)c2c1", "TGI": "2.9 µM"}
{"compound": "CC(=O)NC(CS/N=N/c1nc[nH]c1C(N)=O)C(=O)O (stereo not given)", "TGI": "> 100 µM"}
{"compound": "CCN(CC)CCCNc1nc(=O)[nH]c(C)c1C(=O)Nc1cccc2cc3ccccc3cc12", "TGI": "> 100 µM"}
{"compound": "CCCNC1=C(C(=O)OCC)C(=O)CO1", "TGI": "> 100 µM"}
{"compound": "COC(=O)[C@H](C[C@H](Cc1ccccc1)NC(=O)c1csc([C@@H](C[C@H](C(C)C)N(C)C(=O)[C@@H](NC(=O)[C@H]2CCCCN2C)C(C)C)OC(C)=O)n1)NC(=O)OCc1ccccc1", "TGI": "> 9 µM"}
{"compound": "COc1cc(C=C2C(C)=NN(c3cccc(Cl)c3)C23SCC(=O)N3c2nc3ccccc3s2)ccc1O (stereo not given)", "TGI": "77.5 µM"}
{"compound": "CC(=O)OCC1OC(SC2=N/C(=C\\c3cc4c(=O)c5ccccc5sc4s3)C(=O)N2c2ccccc2)C(OC(C)=O)C(OC(C)=O)C1OC(C)=O (stereo not given)", "TGI": "> 100 µM"}
{"compound": "NCCOCCOCCNc1nc(Cc2ccccc2)nc(NCCCN2CCCC2=O)n1", "TGI": "> 100 µM"}
{"compound": "N=c1oc2c(Cl)cc(Cl)cc2cc1C(=O)Nc1cccc2ccccc12", "TGI": "11.2 µM"}
{"compound": "Cc1ccc(C2=Nc3cccc4cccc(c34)N2)cc1", "TGI": "> 100 µM"}
{"compound": "C=CCC[CH2][Sn]([c]1ccccc1)([c]1ccccc1)[c]1ccccc1", "TGI": "3.07 µM"}
{"compound": "Nc1nc2c(c3ncncc13)C(c1cccc(C(F)(F)F)c1)Cc1ncncc1-2 (stereo not given)", "TGI": "41.6 µM"}
